So I've got a bunch of compounds here, and I need their EC50 values.
target: F508delCFTR (Homo sapiens, UniProt P13569, DEL508-508); construct: expressed in transfected cells; host or cells: CFBE41o- human lung-derived epithelial cells (CFBE4lo-F508delCFTR-HRP), doxycycline-inducible; assay: Cell Surface Expression-Horse Radish Peroxidase (CSE-HRP) Assay; format: cell-based; conditions: with co-corrector (2 μM of 3-[(2R,4R)-4-({[1-(2,2-difluoro-1,3-benzodioxol-5-yl)cyclopropyl]carbonyl}amino)-7-methoxy-3,4-dihydro-2H-chromen-2-yl]benzoic acid); read-out: EC50 (with co-corrector)
Sequence (P13569 with tags, fused parts or gaps DEL508-508): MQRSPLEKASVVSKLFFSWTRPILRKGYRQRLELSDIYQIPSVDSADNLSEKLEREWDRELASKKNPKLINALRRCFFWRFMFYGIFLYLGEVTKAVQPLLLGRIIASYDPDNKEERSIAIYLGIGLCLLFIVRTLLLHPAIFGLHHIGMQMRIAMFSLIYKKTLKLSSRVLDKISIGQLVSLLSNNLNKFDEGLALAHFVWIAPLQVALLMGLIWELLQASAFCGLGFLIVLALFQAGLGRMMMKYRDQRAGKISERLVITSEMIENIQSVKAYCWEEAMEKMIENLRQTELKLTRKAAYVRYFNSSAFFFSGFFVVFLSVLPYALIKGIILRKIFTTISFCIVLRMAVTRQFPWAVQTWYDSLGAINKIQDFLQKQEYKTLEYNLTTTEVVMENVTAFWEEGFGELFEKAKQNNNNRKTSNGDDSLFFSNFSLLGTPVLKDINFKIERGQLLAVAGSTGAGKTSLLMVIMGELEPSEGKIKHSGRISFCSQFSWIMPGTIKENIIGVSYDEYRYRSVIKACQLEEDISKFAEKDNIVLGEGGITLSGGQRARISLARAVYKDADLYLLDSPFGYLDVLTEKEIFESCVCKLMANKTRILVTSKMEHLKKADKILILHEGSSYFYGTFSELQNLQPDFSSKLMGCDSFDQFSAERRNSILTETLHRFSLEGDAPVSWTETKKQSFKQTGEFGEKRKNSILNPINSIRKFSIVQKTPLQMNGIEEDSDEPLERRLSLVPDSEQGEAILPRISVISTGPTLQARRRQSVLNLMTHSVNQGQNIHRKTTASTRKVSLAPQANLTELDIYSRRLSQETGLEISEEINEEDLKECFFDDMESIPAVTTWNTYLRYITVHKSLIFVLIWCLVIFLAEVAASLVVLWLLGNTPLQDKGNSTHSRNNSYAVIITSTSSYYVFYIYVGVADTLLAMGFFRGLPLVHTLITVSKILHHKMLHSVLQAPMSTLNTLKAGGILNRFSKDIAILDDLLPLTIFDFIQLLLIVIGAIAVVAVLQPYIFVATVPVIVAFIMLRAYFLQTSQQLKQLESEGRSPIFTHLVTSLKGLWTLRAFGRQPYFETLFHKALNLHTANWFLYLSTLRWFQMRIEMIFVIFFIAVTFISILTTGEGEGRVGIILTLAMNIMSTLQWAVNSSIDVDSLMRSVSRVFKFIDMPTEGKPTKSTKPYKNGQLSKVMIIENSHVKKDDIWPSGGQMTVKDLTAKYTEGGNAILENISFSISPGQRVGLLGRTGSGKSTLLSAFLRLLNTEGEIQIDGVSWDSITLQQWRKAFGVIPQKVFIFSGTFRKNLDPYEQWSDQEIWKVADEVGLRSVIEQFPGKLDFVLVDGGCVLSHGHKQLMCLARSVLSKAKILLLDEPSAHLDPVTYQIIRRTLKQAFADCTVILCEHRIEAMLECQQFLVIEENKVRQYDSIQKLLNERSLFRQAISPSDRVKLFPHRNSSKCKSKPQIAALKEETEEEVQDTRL

input: Entry `CC(C)(C)[C@H]1[C@H](Nc2cc(C#N)cc(Cl)n2)[C@H](c2ccccc2)N(C(=O)C2CCCCC2)[C@@H]1C(=O)O` : reported EC50 = ?
output: 1 to 10 µM

input: For the compound shown here, `COc1ccc(C2(C)CCC2)cc1CN[C@H]1[C@H](C(C)(C)C)[C@@H](C(=O)O)N(C(=O)C2CCCCC2)[C@H]1c1ccccc1` , give the reported EC50.
output: < 1 µM

input: EC50 lookup needed for `COc1ncc(Cc2ccccc2)cc1CN[C@H]1[C@H](C(C)(C)C)[C@@H](C(=O)O)N(C(=O)C2CCCCC2)[C@H]1c1ccccc1` , thanks.
output: < 1 µM
